Tested on: DeltatarO mutant
Experiment: S. aureus survival, RN4220 and DeltatarO strains – OD600, teichoic acid synthesis inhibitors, primary screen (AID 463173)
Conditions: S. aureus RN4220 wild type/DeltatarO growth, OD600, 18 h, screened at 18.75 µg/mL (by protocol)
Among all 52,000 compounds or so, about 4,300 (8.3%) were called active. Cut-off read from the data, not from the text of the source: active = survival mostly below about 52% (no sharp cut-off); inactive = mostly above about 56%. Shown is part of a subset that was picked to be rich in actives.
Choose one outcome from this list and give only that: active, inactive

Some entries whose results are on file:
CCOC(=O)c1cccc(NC(=O)Nc2ccc3c(c2)N(C)C(=O)c2ccccc2S3)c1 | inactive
Cc1cc2nc(-c3cccc(NC(=O)COc4ccc(C(C)C)cc4)c3)oc2cc1C | inactive
CCCCc1ccc(NC(=O)c2ccc3c(c2)CCN3S(=O)(=O)c2ccccc2)cc1 | inactive
Cc1ccc(NCc2nnc(SCC(=O)N(Cc3ccccc3)C(C)(C)C)o2)c(C)c1 | inactive
CCc1cccc(NC(=O)Nc2ccc3c(c2)N(C)C(=O)c2ccccc2S3)c1 | active
COc1ccc(-n2cnc3cc(C(=O)NC4CCCCCC4)ccc32)cc1 | inactive
Cc1ccccc1Cn1cnc2nc3c(cc2c1=O)CC(C)CC3 (stereo not drawn) | active
CC(C)CCNC(=O)c1ccc2c(c1)N(Cc1cccc(Cl)c1)C(=O)c1ccccc1S2 | inactive

Dear all, I need the recorded test outcome for Cc1cccc(-c2nc(CCNC(=O)c3ccco3)cs2)c1 , thank you.
active

Record request — test call for Cc1ccc(C(=O)c2oc3ccccc3c2NC(=O)COc2ccc(Cl)c(C)c2)cc1
inactive

Which outcome was assigned to CCCCc1ccc(NC(=O)c2ccc3c(c2)CCN3S(=O)(=O)CC)cc1 in this test?
active

###

Test system: DeltatarO mutant
Experiment: S. aureus survival, RN4220 and DeltatarO strains – OD600, teichoic acid synthesis inhibitors, primary screen (AID 463173)
Details: S. aureus RN4220 wild type/DeltatarO growth, OD600, 18 h, active compounds read low, screened at 18.75 µg/mL (by protocol)
The campaign covered roughly 52,000 compounds. About 4,300 (8.3%) were called active. The sample holds actives, similar compounds and a random draw of the others, so the mix is not that of the screen.
Field: label. Allowed values: Met (survival < 70%) or Not met (survival >= 70%).

The examples below pair each entry with its known result.
Cc1ccc2c(CC(=O)Nc3ccc(S(=O)(=O)N4CCC(C)CC4)cc3)coc2c1 | Met
O=C(NCCc1ccccc1)c1ccc(Cn2c(SCc3ccc(F)cc3)nc3cccnc32)cc1 | Not met
CCN(CC)C(=O)N1CCN(C(=O)N(CC)CC)CC1 | Not met

Read the next record carefully.
For O=S(=O)(c1ccc(Cl)cc1)N1CCC(c2ccncc2)CC1 , is the recorded survival below the cut-off of 70%?
Not met

###

System: DeltatarO mutant
Assay: S. aureus survival, RN4220 and DeltatarO strains – OD600, teichoic acid synthesis inhibitors, primary screen (AID 463173)
Settings: S. aureus RN4220 wild type/DeltatarO growth, OD600, 18 h, active compounds read low, screened at 18.75 µg/mL (by protocol)
About 4,300 (8.3%) of roughly 52,000 compounds were called active. Many of the other results were omitted from the sample, so actives are more common in it than they were.
parameterMeasured: survival

Before answering, review these 3 worked examples.
O=C(Cc1ccc(F)cc1)NCCc1csc2nc(-c3ccc(Cl)cc3)nn12 | 95% (inactive)
CCOc1ccc(-n2c(SCC(=O)Nc3ccccc3OC)nc3c(oc4ccccc43)c2=O)cc1 | 69% (inactive)
CCc1ccccc1NC(=O)C1(C)Cc2ccccc2C(=O)O1 (stereo unspecified) | 97% (inactive)

Per the record, Cc1ccc(NC(=O)CCCn2c(=O)c3cccn3c3cccnc32)cc1C has survival of 79% (inactive)

The compound CCCCN(CC)CCCNC(=O)c1cc2c(=O)[nH]c3ccccc3c2s1 showed survival equal to 151% (inactive)

In plain terms, N#C/C(=C\c1ccc(-c2cccc(Cl)c2)o1)C(N)=O has a documented survival of 99% (inactive)
